Reference source for all entries: patent US11098077B2

Listed compounds paired with reported hSTING Tm Shift WT
- system tested: hSTING WT (Homo sapiens, UniProt Q86WV6, H232R)
- Construct: DNA encoding amino acids 140-379 (amino acid numbering corresponding to Swiss Prot Q86WV6); 6xHIS (N, cleaved yes); SUMO (N, cleaved yes); made in house; host or cells: Rosetta2 (DE3) E. coli
- Sequence (Q86WV6 140-379 H232R limits assumed): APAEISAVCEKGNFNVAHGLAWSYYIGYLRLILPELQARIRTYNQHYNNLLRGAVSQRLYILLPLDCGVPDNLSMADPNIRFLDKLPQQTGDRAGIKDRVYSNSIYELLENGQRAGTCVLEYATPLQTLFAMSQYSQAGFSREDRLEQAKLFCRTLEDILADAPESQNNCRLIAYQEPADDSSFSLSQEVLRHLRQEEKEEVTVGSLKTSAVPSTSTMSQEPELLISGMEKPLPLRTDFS
- experiment summary: Differential scanning fluorometry (DSF) binding to purified STING AA140-379, wild type
- settings: DSF; ligand 1 mM; 1 mg/ml STING AA140-379
The reply should be a number in °C, with the unit left off.

Solved cases (8 shown):
>>> obs_value("O=C(Nc1ncnc2c1ncn2[C@@H]1O[C@@H]2CO[P@](=O)(S)O[C@H]3[C@H]4OC[C@]3(CO[P@@](=O)(S)O[C@@H]1[C@@H]2O)O[C@H]4n1cnc2c(NC(=O)c3ccccc3)ncnc21)c1ccccc1 [Compound 11e]")
1.1
>>> obs_value("Nc1ncnc2c1ncn2[C@@H]1O[C@@]23CO[C@@H]1[C@@H]2O[P@](=O)(S)OC[C@@]12CO[C@@H]([C@H](n4cnc5c(N)ncnc54)O1)[C@@H]2O[P@](=O)(S)OC3 [Compound 5a]")
16.8
>>> obs_value("Nc1ncnc2c1ncn2[C@@H]1O[C@@H]2CO[P@](=O)(S)O[C@H]3[C@H]4OC[C@]3(CO[P@@](=O)(S)O[C@@H]1[C@@H]2O)O[C@H]4n1cnc2c(N)ncnc21 [Compound 10b]")
8.7
>>> obs_value("O=C(Nc1ncnc2c1ncn2[C@@H]1O[C@@H]2CO[P@@](=O)(S)O[C@H]3[C@H]4OC[C@]3(CO[P@@](=O)(S)O[C@@H]1[C@@H]2O)O[C@H]4n1cnc2c(NC(=O)c3ccccc3)ncnc21)c1ccccc1 [Compound 11d]")
2.5
>>> obs_value("Nc1nc2c(ncn2[C@@H]2O[C@@H]3CO[P@](=O)(S)O[C@H]4[C@H]5OC[C@]4(CO[P@@](=O)(S)O[C@H]3[C@H]2O)O[C@H]5n2cnc3c(N)ncnc32)c(=O)[nH]1 [Compound 45b]")
9.4
>>> obs_value("Nc1ncnc2c1ncn2[C@@H]1O[C@@H]2CO[P@](=O)(S)O[C@H]3[C@H]4OC[C@]3(CO[P@@](=O)(S)O[C@@H]1[C@H]2F)O[C@H]4n1cnc2c(N)ncnc21 [Compound 37b]")
1.8
>>> obs_value("CC(C)(C)[Si](C)(C)O[C@H]1[C@H]2O[P@](=O)(S)OC[C@@]34CO[C@@H]([C@H](n5cnc6c(N)ncnc65)O3)[C@@H]4O[P@](=O)(S)OC[C@H]1O[C@H]2n1cnc2c(N)ncnc21 [Compound 11a]")
7.0
>>> obs_value("Nc1ncnc2c1ncn2[C@@H]1O[C@@H]2CO[P@@](=O)(S)O[C@H]3[C@H]4OC[C@]3(CO[P@](=O)(S)O[C@@H]1[C@H]2F)O[C@H]4n1cnc2c(N)ncnc21 [Compound 37c]")
1.2

Hi! What's the reported hSTING Tm Shift WT for Nc1nc2c(ncn2[C@@H]2O[C@@]34CO[C@@H]2[C@@H]3O[P@@](=O)(S)OC[C@H]2O[C@@H](n3cnc5c(N)ncnc53)[C@H](O)[C@@H]2O[P@](=O)(S)OC4)c(=O)[nH]1 [Compound 33b] on hSTING WT (Homo sapiens, UniProt Q86WV6, H232R)?
13.2

Hi! What's the reported hSTING Tm Shift WT for Nc1ncnc2c1ncn2[C@@H]1O[C@@H]2CO[P@@](=O)(S)O[C@H]3[C@H]4OC[C@]3(CO[P@@](=O)(S)O[C@@H]1[C@@H]2F)O[C@H]4n1cnc2c(N)ncnc21 [Compound 27a] on hSTING WT (Homo sapiens, UniProt Q86WV6, H232R)?
11.8
